Each recorded value in this set is attributed to ChEMBL document CHEMBL3044901.

Recorded measurements of Phytotoxicity, one per entry
# System: Cucumis sativus
# Procedure Text: Phytotoxicity against Cucumis sativus (cucumber) exposed to compound spraying at […] measured 7 days post compound treatment by post-emergence glasshouse test
# Type: organism-based
# Assay Setup: in vivo, other, 168 h

Smiles String	Phytotoxicity
C=CCON1C(=O)C(c2c(C)cc(C)cc2C)=C(O)C1(C)C	0%
Cc1cc(C)c(C2=C(OC(=O)CC(C)(C)C)C(C)(C)N(OC(=O)CC(C)(C)C)C2=O)c(C)c1	0%

Query block: Form field: reported Phytotoxicity of "CCCON1C(=O)C(c2c(C)cc(C)cc2C)=C(O)C1(C)C"
Result block: 0%
